Values compiled from paper PMC11555231.

Target: N-terminally biotinylated recombinant human PADI4 (bio-His-PADI4) (human, UniProt Q9UM07 1-663, biotin on the N-terminal Avi-Tag (BirA))
Sequence (Q9UM07 whole entry): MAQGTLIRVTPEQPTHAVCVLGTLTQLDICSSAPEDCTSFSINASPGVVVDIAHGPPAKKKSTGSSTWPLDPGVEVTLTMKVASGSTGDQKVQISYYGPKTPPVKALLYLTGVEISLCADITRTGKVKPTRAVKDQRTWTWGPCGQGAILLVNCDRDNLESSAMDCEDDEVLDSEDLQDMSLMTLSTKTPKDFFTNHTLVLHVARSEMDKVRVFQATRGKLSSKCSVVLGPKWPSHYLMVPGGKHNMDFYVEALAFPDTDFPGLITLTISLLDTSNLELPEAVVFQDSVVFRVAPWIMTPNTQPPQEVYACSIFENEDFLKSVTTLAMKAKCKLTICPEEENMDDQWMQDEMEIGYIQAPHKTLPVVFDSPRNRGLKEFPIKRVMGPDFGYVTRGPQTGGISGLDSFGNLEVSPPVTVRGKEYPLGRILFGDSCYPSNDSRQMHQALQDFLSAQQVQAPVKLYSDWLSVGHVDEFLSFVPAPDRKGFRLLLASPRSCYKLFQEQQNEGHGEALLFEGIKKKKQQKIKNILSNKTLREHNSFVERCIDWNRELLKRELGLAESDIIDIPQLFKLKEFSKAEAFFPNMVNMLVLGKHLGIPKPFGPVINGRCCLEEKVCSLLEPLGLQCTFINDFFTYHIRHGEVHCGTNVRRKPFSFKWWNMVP
Assay: SPR
measuredQuantity: Kd (µM)
Give the number; µM is assumed, so skip it.

stdin: Quick one: Kd of YESCAYRQVLQL (as PADI4_11: thioether cyclisation between the N-terminus and the side chain of C4; C-terminal amide) [PADI4_11 analogue with R5 replaced by alanine] ?
stdout: 34
